B1: H2-Kb / B15 (parent complex)
chain 1: QQQVRQSPQSLTVWEGETAILNCSYENSAFDYFPWYQQFPGEGPALLISILSVSDKKEDGRFTIFFNKREKKLSLHIADSQPGDSATYFCAASAASNNRLTLGKGTQVVVLP
chain 2: DSGVVQSPRHIIKEKGGRSVLTCIPISGHSNVVWYQQTLGKELKFLIQHYEKVERDKGFLPSRFSVQQFDDYHSEMNMSALELEDSAMYFCASSRRADAEQFFGPGTRLTVL
chain 3: not shown
chain 4: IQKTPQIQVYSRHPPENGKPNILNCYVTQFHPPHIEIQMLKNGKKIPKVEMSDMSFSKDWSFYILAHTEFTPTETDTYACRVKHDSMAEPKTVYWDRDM
chain 5: SIINFEKL

- Variants of: B1
- Assay Text: % of reporter cells activated (NFAT-GFP), raw; further: test concentration or dose not given here
Result Type: ratio to parent

chain 5 L8N    0.844

[a] chain 5 F5R
[b] chain 5 N4I
input: Between item a and item b , which reported ratio to parent is smaller? Mark your answer with the label of the selected entry.
output: b
(b: 0.194, a: 0.96)

Origin of values: paper PMC11480844
